B1: TRIM43 (parent)
chain: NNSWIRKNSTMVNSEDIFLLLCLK

# Variants of: B1
# method_summary: protein stability index of a GFP-peptide fusion (GPS, HEK-293T) (PSI 1-6); higher = more stable;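 further: lentivirally expressed fusions sorted by FACS into six bins by GFP to DsRed ratio, PSI derived from sequencing read proportions per bin multiplied by bin number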
# applied_conditions: c terminus: a fixed tail appended
Tick rule met if protein stability index is 3 or greater. Tick rule not met if protein stability index is less than 3.

I5L ... rule not met
S9F ... rule not met
V12F ... rule not met
S3F ... rule not met
S3L ... rule not met

From here, focus on the item given below.
Lookup: Does protein stability index meet or surpass 3 for "L23S" ?
Found: rule not met
